Here the recorded IC50 is given for each entry.
target: recombinant rat L-type calcium channel (LTCC) subunits (α1c, α2δ, and β1) (Rattus norvegicus, UniProt P22002); construct: expressed in transfected cells; experiment: FLIPR calcium mobilization assay for L-type calcium channel; format: cell-based; conditions: calcium mobilization in vitro assay; HEK293 cells expressing rat LTCC

[
  {
    "Molecule": "CN(C1CCN(CC(=O)Nc2ccc(C(F)(F)F)cc2)CC1)S(=O)(=O)c1cccc(C(F)(F)F)c1",
    "IC50": "> 20 µM"
  },
  {
    "Molecule": "CCOc1cc(F)ccc1NC(=O)CN1CCC(N(C2CC2)S(=O)(=O)c2cccc(C(F)(F)F)c2)CC1",
    "IC50": "> 20 µM"
  },
  {
    "Molecule": "CC(C)N(C1CCN(C(=O)CCNc2cccc(Cl)c2)CC1)S(=O)(=O)c1cccc(C(F)(F)F)c1",
    "IC50": "> 20 µM"
  }
]

Shift focus to the following entry.
Task: For the molecule shown here, COc1ccc(OC)c(NCCC(=O)N2CCC(N(C(C)C)S(=O)(=O)c3cccc(C(F)(F)F)c3)CC2)c1 , give the reported IC50.
Output: > 20 µM

====

biological target: N-type calcium channel (NTCC) (Homo sapiens); assay: FLIPR calcium mobilization assay for N-type calcium channel; conditions: calcium mobilization in vitro assay; differentiated IMR32 cells
Measured Parameter: IC50 (nM)

For orientation, consider the following solved cases.
[
  {
    "Compound": "CC(C)N(C1CCN(CC(=O)N(C)c2ccc(F)cc2)CC1)S(=O)(=O)c1cccc(C(F)(F)F)c1 [Compound 42j]",
    "Observed": 330
  },
  {
    "Compound": "CC(C)N(C1CCN(CC(=O)N(c2ccc(F)cc2)c2ccc(F)cc2)CC1)S(=O)(=O)c1cccc(C(F)(F)F)c1 [Compound 84]",
    "Observed": 320
  },
  {
    "Compound": "CN(C1CCN(C(=O)CC(=O)Nc2ccc(F)cc2F)CC1)S(=O)(=O)c1cccc(C(F)(F)F)c1 [Compound 28]",
    "Observed": 4900
  }
]

A. CC(C)C[C@H](NCc1ccccc1)C(=O)N1CCC(N(C(C)C)S(=O)(=O)c2cccc(C(F)(F)F)c2)CC1 [Compound 88b]
B. O=C(CN1CCC(N(C2CC2)S(=O)(=O)c2ccc(Cl)cc2)CC1)Nc1ccc(F)cc1 [Compound 49]
Task: Which numeric IC50 is bigger, that of A or that of B ? Record your answer as the label of the chosen record.
Output: B
(B: 1310 nM, A: 300 nM)

a. COc1ccccc1NCCC(=O)N1CCC(N(C(C)C)S(=O)(=O)c2cccc(C(F)(F)F)c2)CC1
b. CC(C)N(C1CCN(CCC(=O)Nc2ccc(F)cc2)CC1)S(=O)(=O)c1cccc(C(F)(F)F)c1 [Compound 107a]
Task: Compare a and b and name the one whose reported IC50 is smaller. Record your answer as the label of the chosen record.
Output: a
(a: 370 nM, b: 570 nM)

====

target: N-type calcium channel (NTCC) (Homo sapiens, UniProt Q00975); experiment: FLIPR calcium mobilization assay for N-type calcium channel; settings: calcium mobilization in vitro assay; differentiated IMR32 cells
Sequence (Q00975 whole entry): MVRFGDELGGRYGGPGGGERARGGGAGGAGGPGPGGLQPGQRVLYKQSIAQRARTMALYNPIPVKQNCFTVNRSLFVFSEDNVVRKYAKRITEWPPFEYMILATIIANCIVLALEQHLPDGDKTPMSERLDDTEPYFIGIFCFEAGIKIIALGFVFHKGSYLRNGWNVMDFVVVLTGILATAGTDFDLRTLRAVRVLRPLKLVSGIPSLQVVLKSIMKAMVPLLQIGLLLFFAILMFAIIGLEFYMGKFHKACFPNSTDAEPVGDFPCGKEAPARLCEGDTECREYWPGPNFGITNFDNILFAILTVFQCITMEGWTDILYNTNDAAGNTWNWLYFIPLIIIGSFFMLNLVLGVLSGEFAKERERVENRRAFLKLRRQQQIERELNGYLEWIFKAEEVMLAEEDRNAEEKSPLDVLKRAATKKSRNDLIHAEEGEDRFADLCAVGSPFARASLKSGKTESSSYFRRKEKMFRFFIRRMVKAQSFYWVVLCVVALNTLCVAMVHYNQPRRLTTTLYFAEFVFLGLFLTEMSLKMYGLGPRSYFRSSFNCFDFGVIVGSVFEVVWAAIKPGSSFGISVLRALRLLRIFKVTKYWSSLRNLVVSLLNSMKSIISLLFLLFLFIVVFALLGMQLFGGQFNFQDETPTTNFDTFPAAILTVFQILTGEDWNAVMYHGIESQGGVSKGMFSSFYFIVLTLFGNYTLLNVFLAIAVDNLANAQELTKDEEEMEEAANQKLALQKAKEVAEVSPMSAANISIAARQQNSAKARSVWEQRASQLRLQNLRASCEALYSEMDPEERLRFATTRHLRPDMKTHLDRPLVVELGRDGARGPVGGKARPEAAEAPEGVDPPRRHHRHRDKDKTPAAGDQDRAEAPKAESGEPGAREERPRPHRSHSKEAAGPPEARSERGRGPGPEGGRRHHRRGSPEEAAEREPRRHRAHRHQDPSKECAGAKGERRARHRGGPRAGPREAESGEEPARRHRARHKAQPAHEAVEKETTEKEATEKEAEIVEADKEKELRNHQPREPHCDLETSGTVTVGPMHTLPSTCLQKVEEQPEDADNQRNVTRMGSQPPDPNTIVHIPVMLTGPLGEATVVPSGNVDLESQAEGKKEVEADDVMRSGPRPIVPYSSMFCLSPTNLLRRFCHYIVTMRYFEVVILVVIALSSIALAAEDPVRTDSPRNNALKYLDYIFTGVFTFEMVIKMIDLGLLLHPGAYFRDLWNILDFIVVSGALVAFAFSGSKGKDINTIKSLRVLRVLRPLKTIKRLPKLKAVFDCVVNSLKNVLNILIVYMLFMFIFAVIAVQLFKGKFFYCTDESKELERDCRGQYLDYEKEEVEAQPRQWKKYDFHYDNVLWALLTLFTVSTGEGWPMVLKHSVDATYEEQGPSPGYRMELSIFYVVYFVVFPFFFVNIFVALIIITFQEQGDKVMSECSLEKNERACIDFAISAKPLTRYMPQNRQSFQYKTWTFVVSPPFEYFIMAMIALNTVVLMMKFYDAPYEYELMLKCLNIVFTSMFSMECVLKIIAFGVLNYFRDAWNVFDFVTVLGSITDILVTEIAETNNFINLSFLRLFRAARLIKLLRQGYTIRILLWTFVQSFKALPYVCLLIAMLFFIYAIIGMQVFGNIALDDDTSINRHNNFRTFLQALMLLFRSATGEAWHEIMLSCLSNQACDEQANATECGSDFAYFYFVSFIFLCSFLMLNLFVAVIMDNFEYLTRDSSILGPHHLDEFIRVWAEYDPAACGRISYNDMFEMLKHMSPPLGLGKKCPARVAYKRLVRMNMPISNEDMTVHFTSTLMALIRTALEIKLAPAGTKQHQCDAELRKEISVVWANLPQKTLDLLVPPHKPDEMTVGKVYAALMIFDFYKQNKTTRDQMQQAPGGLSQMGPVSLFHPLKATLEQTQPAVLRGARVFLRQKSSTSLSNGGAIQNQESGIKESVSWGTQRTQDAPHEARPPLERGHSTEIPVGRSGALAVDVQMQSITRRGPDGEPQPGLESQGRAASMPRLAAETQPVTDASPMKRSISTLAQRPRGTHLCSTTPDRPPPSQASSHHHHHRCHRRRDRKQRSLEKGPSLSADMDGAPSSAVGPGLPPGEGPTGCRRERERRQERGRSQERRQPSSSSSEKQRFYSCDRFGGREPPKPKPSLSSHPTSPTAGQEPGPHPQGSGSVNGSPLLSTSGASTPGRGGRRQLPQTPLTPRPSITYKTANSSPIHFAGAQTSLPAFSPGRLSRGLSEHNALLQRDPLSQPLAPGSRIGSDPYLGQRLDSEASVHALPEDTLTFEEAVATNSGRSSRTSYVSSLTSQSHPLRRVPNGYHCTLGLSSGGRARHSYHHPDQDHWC
Sequence (P54289 25-956 partner limits assumed): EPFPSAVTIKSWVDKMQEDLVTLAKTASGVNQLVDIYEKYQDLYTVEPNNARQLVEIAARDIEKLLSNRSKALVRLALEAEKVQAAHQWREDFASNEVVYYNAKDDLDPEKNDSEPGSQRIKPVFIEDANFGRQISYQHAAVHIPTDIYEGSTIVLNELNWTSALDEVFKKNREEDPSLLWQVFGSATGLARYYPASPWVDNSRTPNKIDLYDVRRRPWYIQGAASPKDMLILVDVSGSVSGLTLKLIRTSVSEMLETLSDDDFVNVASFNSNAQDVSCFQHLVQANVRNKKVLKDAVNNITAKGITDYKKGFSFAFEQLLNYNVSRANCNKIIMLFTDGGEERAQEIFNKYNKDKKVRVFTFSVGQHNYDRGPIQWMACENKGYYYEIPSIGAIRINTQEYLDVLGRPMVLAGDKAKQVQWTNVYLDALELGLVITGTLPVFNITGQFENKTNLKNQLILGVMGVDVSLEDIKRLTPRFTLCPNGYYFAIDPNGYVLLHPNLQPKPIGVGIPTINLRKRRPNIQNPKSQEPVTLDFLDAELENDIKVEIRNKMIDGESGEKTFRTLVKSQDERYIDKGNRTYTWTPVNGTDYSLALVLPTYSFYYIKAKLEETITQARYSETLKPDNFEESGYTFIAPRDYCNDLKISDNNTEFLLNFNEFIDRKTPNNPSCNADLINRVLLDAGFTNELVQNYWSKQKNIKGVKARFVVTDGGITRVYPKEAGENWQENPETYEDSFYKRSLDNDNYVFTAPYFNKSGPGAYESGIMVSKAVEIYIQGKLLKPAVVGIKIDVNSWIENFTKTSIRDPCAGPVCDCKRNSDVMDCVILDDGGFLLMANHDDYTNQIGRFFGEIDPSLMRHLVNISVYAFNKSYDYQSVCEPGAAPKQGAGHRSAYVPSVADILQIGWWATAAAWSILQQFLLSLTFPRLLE
Sequence (P54289 957-1103 partner limits assumed): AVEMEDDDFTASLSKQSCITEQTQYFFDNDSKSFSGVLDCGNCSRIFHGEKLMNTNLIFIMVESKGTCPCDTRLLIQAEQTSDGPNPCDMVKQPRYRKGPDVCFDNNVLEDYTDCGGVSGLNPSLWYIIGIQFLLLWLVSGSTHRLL
Sequence (P54284 whole entry partner): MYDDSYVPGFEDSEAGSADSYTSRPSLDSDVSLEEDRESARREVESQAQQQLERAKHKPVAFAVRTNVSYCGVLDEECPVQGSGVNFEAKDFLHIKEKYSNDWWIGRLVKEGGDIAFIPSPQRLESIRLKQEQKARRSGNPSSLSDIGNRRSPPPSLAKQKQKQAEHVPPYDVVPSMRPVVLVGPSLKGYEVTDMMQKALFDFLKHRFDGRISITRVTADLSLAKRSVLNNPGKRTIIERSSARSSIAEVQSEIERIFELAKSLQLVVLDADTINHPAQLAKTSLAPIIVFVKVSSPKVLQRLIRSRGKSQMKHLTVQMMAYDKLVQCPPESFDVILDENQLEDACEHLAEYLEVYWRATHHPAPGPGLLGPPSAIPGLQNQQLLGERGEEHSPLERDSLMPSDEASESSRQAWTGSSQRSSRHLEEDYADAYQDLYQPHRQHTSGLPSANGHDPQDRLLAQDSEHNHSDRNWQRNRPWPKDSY
pIC50: −log10 of the molar value.
Measured Parameter: pIC50

A. CC(C)N(C1CCN(C(=O)CCNc2ccc(F)cc2)CC1)S(=O)(=O)c1cccc(C(F)(F)F)c1
B. NCCN1CCC(N(C2CC2)S(=O)(=O)c2cccc(C(F)(F)F)c2)CC1 [Compound 114]
C. CCN(CC)C(=O)CN1CCC(N(C2CC2)S(=O)(=O)c2cccc(C(F)(F)F)c2)CC1 [Compound 38]
Task: Please put the 3 compounds above in a list ordered by falling pIC50. Output spec: a listing of the labels in the requested order.
Output: A, C, B
(A: 6.28, C: 6.08, B: 5.83)
